- System: Stat5 phosphorylation in NK-92 cells
- Test Protocol: Western blotting assay for Stat5
- Assay type: cell-based
- Settings: NK92, 1 hour, IL-2 stimulation, read-out: Stat5 inhibition
pIC50: −log10 of the molar value.
Readout: pIC50

[[record]]
compound = "C=CC(=O)Nc1cccc(Oc2nc(Nc3ccc(N4CCN(C)CC4)cc3)ncc2OC)c1"
measured_value = "≤ 6.40"

[[record]]
compound = "C=CC(=O)Nc1cccc(Nc2nc(Nc3ccc(N[C@@H]4CCN(CCF)C4)cc3)ncc2F)c1"
measured_value = "6.40 to 6.70"


Please state pIC50 for every compound in the list that follows.
1. C=CC(=O)Nc1cccc(Oc2nc(Nc3ccc4c(c3)CC(=O)N4CCOC)ncc2OC)c1 [Compound I-52a]
2. C=CC(=O)Nc1cccc(Oc2nc(Nc3ccc(N4CCN(CCF)CC4)cc3)ncc2OC)c1
3. C=CC(=O)Nc1cccc(Oc2nc(Nc3ccc(N(C)[C@H]4CCN(CCOC)C4)cc3)nc3[nH]ccc23)c1 [Compound I-49a]
4. C=CC(=O)Nc1cccc(Oc2nc(Nc3ccc(N(C4CC4)[C@H]4CCN(CCOC)C4)cc3)ncc2OC)c1 [Compound I-53a]
5. C=CC(=O)Nc1cccc(Oc2nc(Nc3ccc4c(c3)CCN4CCOC)ncc2OC)c1 [Compound I-34a]
6. C=CC(=O)Nc1cccc(Oc2nc(Nc3ccc(N(C)[C@H]4CCN(C(C)=O)C4)cc3)ncc2OC)c1 [Compound I-58a]

1. ≤ 6.40
2. 6.40 to 6.70
3. ≤ 6.40
4. ≤ 6.40
5. ≤ 6.40
6. ≤ 6.40
